B1: glmS ribozyme (parent)
chain: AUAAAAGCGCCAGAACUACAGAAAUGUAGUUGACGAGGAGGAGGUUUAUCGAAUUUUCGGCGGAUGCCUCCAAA

Variants of: B1
Test: self-cleavage kobs at 160 uM GlcN6P; higher = faster cleavage; RNA array
Details: with glucosamine-6-phosphate
Fewer inactive variants are shown than the library holds.
assay readout: self-cleavage kobs at 160 uM GlcN6P

# self-cleavage kobs at 160 uM GlcN6P lookup, item G7A G41A
< 1e-05 s⁻¹

Next variant: G32U C34G G43A
< 1e-05 s⁻¹

Try C10U U30G next.
< 1e-05 s⁻¹

Please do the same for C16G U54G as well.
0.000312 s⁻¹

Try the variant A14U A15U
0.000141 s⁻¹

What do we get for A14U G29A G63U ?
< 1e-05 s⁻¹

Now consider G13U U30C and answer again.
3.75e-05 s⁻¹

Continue with U31C U55G
0.000291 s⁻¹

Request: C10U G13C C16G G32A
< 1e-05 s⁻¹

Please do the same for A12C U49A as well.
< 1e-05 s⁻¹

Repeat with A12C G63A
< 1e-05 s⁻¹

Also G44C C71G ?
< 1e-05 s⁻¹
